Molecular target: Adrenergic receptor alpha-1 (Rattus norvegicus, UniProt P15823+P23944+P43140)
Sequence (P15823 whole entry): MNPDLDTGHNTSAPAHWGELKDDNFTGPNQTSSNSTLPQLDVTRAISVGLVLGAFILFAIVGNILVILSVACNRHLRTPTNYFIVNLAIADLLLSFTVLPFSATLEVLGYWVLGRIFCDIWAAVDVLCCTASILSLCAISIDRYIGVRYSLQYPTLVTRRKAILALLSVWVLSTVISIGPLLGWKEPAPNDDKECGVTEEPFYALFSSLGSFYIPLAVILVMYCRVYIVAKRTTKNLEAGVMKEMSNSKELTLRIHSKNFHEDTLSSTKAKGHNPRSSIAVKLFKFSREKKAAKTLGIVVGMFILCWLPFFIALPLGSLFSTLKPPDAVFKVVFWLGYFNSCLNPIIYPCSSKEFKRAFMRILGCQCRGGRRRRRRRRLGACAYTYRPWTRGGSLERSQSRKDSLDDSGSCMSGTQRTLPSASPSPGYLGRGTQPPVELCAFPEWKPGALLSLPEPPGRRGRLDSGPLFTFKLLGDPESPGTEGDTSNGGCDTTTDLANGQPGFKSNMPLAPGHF
Sequence (P23944 whole entry): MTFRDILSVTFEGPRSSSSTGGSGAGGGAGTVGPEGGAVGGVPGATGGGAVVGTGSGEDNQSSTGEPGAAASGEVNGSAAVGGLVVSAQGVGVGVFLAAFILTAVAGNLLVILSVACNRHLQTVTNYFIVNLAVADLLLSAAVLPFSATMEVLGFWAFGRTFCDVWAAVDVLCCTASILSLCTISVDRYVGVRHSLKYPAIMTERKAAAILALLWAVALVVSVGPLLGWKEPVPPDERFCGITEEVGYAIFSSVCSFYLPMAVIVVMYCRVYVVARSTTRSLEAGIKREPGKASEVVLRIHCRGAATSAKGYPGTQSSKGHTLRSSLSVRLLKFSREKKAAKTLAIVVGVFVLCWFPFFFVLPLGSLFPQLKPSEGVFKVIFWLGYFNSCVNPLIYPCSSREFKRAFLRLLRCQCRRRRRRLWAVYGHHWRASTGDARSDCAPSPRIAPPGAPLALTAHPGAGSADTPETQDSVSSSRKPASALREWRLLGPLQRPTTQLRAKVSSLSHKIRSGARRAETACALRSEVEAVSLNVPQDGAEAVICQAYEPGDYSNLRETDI
Sequence (P43140 whole entry): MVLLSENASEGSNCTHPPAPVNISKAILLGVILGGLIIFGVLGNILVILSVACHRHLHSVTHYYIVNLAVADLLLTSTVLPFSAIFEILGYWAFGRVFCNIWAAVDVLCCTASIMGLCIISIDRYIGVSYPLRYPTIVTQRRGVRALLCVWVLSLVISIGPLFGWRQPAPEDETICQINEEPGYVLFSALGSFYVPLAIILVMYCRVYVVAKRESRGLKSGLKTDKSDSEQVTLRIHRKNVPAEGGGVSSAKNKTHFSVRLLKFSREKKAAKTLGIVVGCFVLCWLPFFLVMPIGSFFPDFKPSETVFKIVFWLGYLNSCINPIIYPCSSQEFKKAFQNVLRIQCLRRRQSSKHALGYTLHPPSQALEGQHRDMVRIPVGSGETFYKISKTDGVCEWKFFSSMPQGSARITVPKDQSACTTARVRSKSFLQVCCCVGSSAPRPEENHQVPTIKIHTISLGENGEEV
Assay: Displacement of [3H]-prazosin from alpha1-adrenergic receptor in rat brain cortex after 30 mins by Microbeta scintillation counting method
attribute_measured: Ki (nM)

[[record]]
molecule = "CC1(c2ccc(Cl)cc2)NC(=O)N(CC(O)CN2CCN(c3ccccc3C#N)CC2)C1=O.Cl (racemic)"
numeric_readout = 250


[P] COc1ccccc1N1CCN(CC(O)CN2C(=O)NC(C)(c3ccc(Cl)cc3)C2=O)CC1.Cl (racemic)
[Q] CCOc1ccccc1N1CCN(CC(O)CN2C(=O)NC(C)(c3ccccc3)C2=O)CC1.Cl (racemic)
Field: entry with larger Ki (options P / Q ). API: response body contains the label of the selected item.
Q
(Q: 500 nM, P: 268 nM)
